Tested on: MDA-MB-231 breast
measurement.description: NCI tumour cell line growth inhibition, 48 h
result.type: TGI (µM)
Answers are plain numbers, in µM.

# example entries with known answers
CC(C)C[C@H](NC(=O)[C@H](CCc1ccccc1)NC(=O)c1ccc2ccccc2n1)B(O)O | 0.305
COc1cccc2c(Nc3ccc(C(=O)NCCN(C)C)cc3)cc(-c3ccccc3)nc12 | 19.4
CC(CN(C)C)C(=O)/C=C/c1ccc(Cl)c(Cl)c1 (centres undefined) | 3.29

Hey, can you go through the list below and give me TGI for every item?
1. O=Cc1cc(O)c(O)c(/C=N/n2c3ccccc3c3ccccc32)c1
2. C=C1CO[C@@H]2C[C@@H]1CCC1(C)OC1CC/C(C)=C/CC[C@@]2(C)O (some centres undefined)
3. COc1cc2c3c(n(CCCNCCN4CCOCC4)c(=O)c2cc1OC)-c1cc2c(cc1C3=O)OCO2
4. O=C(CC(=O)c1ccccc1NC1=Cc2ccccc2C(=O)C1=O)C(=O)NC1=C(Cl)C(=O)c2ccccc2C1=O

30.2
36.1
5.72
8.95

Hey, can you go through the list below and give me TGI for every item?
1. CC1(C)CC[C@]2(C(=O)O)CC[C@]3(C)[C@H](CC[C@@H]4[C@@]5(C)CCC(=O)C(C)(C)[C@@H]5CC[C@]43C)[C@H]2[C@H]1OC(=O)C(F)(F)F
2. COc1ccc2sc3c(NCCCNCCO)nc4ccccc4c3c(=O)c2c1
3. N#CI1OC(C(F)(F)F)(C(F)(F)F)c2ccccc21
4. Nc1ccc(-c2nc3cc(F)ccc3s2)cc1

31.4
2.95
54.7
81.5

Hey, can you go through the list below and give me TGI for every item?
1. C=CCc1cccc2cc(C(=O)Nc3nc(C45CC6CC(CC(C6)C4)C5)cs3)c(=O)oc12
2. CCOC(=O)/C=C(/C(=O)OCC)n1ccc(=O)[nH]c1=O
3. COc1cccc(C2C(C#N)=C(N)Oc3cc(OC)ccc32)c1 (centres undefined)
4. Cc1nc2ccc(NCCN(C)C)c3c(=O)c4cc(O)ccc4n1c23
5. CC(C)[C@@H](CS(=O)(=O)C(C)C)N1C(=O)[C@@](C)(CC(=O)O)C[C@H](c2cccc(Cl)c2)[C@H]1c1ccc(Cl)cc1

1. 62.1
2. 26.4
3. 1.49
4. 13.2
5. 39.2

Hey, can you go through the list below and give me TGI for every item?
1. CCOC(=O)C1=CN(C(=O)c2ccccc2)CCC1Cc1ccccc1 (centres undefined)
2. O=C(CC(=O)Nc1ccccc1Cl)NNC(Sc1ccccc1)c1cc(N=Nc2ccc(Br)cc2)ccc1O (centres undefined)

64.9
8.68

---

Kindly state GI50 for each of the entries shown.
System: CCRF-CEM leukemia
measurement.description: NCI tumour cell line growth inhibition, 48 h

C=C(C(=O)OC)[C@@H]1C[C@@H](O)[C@]2(C)CC/C=C(\C)CCC[C@H](C)[C@H](O)C1O2 | 24.2 µM
CN(C)CCCC(=O)Nc1ccc(Cn2nnc3c2C(=O)c2nnn(Cc4ccc(NC(=O)CCCN(C)C)cc4)c2C3=O)cc1 | 2.04 µM
CCOC(=O)c1cnc2c(cnn2CC)c1NN=C(C)C | 78.3 µM

Hey, can you go through the list below and give me GI50 for every item?
1. COc1ccc(-c2[nH]ncc2-c2cc(OC)c(OC)c(OC)c2)cc1
2. C=CCNc1cccc2c1C(=O)c1ccccc1C2(O)CC=C (stereo unspecified)
3. COc1cc2c3c(n(C)c(=O)c2cc1OC)-c1cc2c(cc1/C3=C\[C@@H](N)CCCCN)OCO2
4. CC(C)c1ccc(O)c(=O)cc1
5. COc1ccc(-c2c(C#N)c(N)nc3c2CCCc2ccc(F)cc2-3)cc1OC
6. COC(=O)[C@]12CC[C@@H](C)[C@H](C)[C@@H]1C1=CC[C@@H]3[C@@]4(C)C=C(O)C(=O)C(C)=C4CC[C@@]3(C)[C@]1(C)CC2
7. C[C@@]12CCC[C@@](C)(C(=O)O)C1CC[C@@]13CC(=O)[C@@](CO)(CCC12)C3 (stereo partly specified)
8. C=C1C(=O)O[C@H]2[C@H]1CC/C(COC(=O)C(=O)c1cn(C)c3ccc(OC)cc13)=C\CC[C@@]1(C)O[C@@H]21

1: < 0.0163 µM; 2: 22.6 µM; 3: 0.996 µM; 4: 1.67 µM; 5: < 0.0105 µM; 6: 5.26 µM; 7: > 100 µM; 8: 2.39 µM

Hey, can you go through the list below and give me GI50 for every item?
1. CCCCc1nc2cc(/C=C/C(=O)NO)ccc2n1CCN(CC)CC
2. C=C1C(=O)O[C@H]2[C@H]1CC(=O)/C(C)=C\CC[C@@]1(C)O[C@@H]21
3. CCCCC#Cc1cccc(=O)o1
4. Cc1ccc(-n2c(-c3ccc(Cl)cc3)cs/c2=N\NC(=O)COc2n[nH]c(=O)c3ccccc23)cc1
5. CC1(C)CC[C@]2(C(=O)O)CC[C@]3(C)[C@H](CC[C@@H]4[C@@]5(C)CCC(=O)C(C)(C)[C@@H]5CC[C@]43C)[C@H]2[C@H]1OC(=O)C(F)(F)F

0.317 µM
0.443 µg/mL
20.3 µM
> 100 µM
9.51 µM

---

System: SNB-75 CNS
measurement.description: NCI tumour cell line growth inhibition, 48 h
result.type: TGI

# example entries with known answers
c1ccc2nn(C3CCCCO3)nc2c1 (stereo unspecified) | > 100 µM
O=C1C(CN2CCCC2)CCCC1CN1CCCC1 (stereo unspecified) | 35.6 µM
Cn1cnc([N+](=O)[O-])c1Sc1nnc(C(F)(F)F)n1C | > 100 µM

Hey, can you go through the list below and give me TGI for every item?
1. CN(C)CCCC(=O)Nc1ccc(Cn2nnc3c2C(=O)c2nnn(Cc4ccc(NC(=O)CCCN(C)C)cc4)c2C3=O)cc1
2. O=C(CCC(=O)OCC1OC(O)(CC2OC(CO)C(O)C(O)C2O)C(O)C1O)OCc1ccccc1 (stereo unspecified)
3. Cc1[nH]nc(C(=O)Nc2n[nH]c3ccccc23)c1[N+](=O)[O-]
4. O=c1cc2cc(O)[nH]c(=O)c2c(O)[nH]1
5. Cc1nn(C(=O)c2ccc(Cl)cc2)c2c1C(c1ccco1)SC(N)=N2 (stereo unspecified)
6. CC1CN=C(N(C)C(=O)Nc2ccc(Cl)c(Cl)c2)S1 (stereo unspecified)

3.06 µM
> 100 µM
> 100 µM
> 100 µM
> 10 µM
> 100 µM

Hey, can you go through the list below and give me TGI for every item?
1. O=C(O/N=C1/CCCC/C1=C\c1ccccc1)c1ccc(Cl)cc1
2. CCOC(=O)O/N=C1/C(c2c(O)[nH]c3ccccc23)=Nc2ccccc21

["> 100 µM", "11.4 µM"]

---

Kindly state TGI for each of the entries shown.
System: SNB-75 CNS
measurement.description: NCI tumour cell line growth inhibition, 48 h
One number for each entry, in µM.

CC12CCC(O)CC1CCC1C2CCC2(C)C(C3=CC(=O)OC3)CCC12 (stereo not given) | 21.2

Consider the compound `Cc1cnc2[nH]c(-c3cccc(Cl)c3)cc(=O)c2c1` and give its measured TGI. 36.2

---

Kindly state TGI for each of the entries shown.
Test system: MCF7 breast
measurement.description: NCI tumour cell line growth inhibition, 48 h
Give bare numbers, in µM.

# example entries with known answers
O=C(CC(=O)c1ccccc1NC1=Cc2ccccc2C(=O)C1=O)C(=O)NC1=C(Cl)C(=O)c2ccccc2C1=O | 7.32
COc1cc(-c2coc3c(OC)c(OC4OC(COC5OC(C)C(O)C(O)C5O)C(O)C(O)C4O)c(OC)c(O)c3c2=O)cc(C)c1O (configuration not stated) | 47.4
C=C1C(=O)O[C@H]2[C@H]1CC/C(COC(=O)C(=O)c1cn(C)c3ccc(OC)cc13)=C\CC[C@@]1(C)O[C@@H]21 | 16.4
CCOC(=O)O/N=C1/C(c2c(O)[nH]c3ccccc23)=Nc2ccccc21 | 18.4
CC(C)(CN1CCCCC1)C(=O)/C=C/c1c(Cl)cccc1Cl | 5.31

Hey, can you go through the list below and give me TGI for every item?
1. O=C1CC(Cl)c2c(Cl)sc(Cl)c21 (configuration not stated)
2. N#Cc1ccc2oc3ccc(C#N)cc3c(=O)c2c1
3. Cc1nc2ccccc2cc1C[N+]12CN3CN(CN(C3)C1)C2
4. COc1cc(/C=C/C(=O)c2cc(OC)c(OC)c(OC)c2)cc(OC)c1OC

2.11
94.8
27.7
15.3

---

System: CAKI-1 renal
measurement.description: NCI tumour cell line growth inhibition, 48 h
Kindly state TGI for each of the entries shown.

# example entries with known answers
O=C(NC(CO)CO)c1ccc2cc(C(=O)N3CC(CCl)c4ccc([N+](=O)[O-])cc43)[nH]c2c1 (centres undefined) | > 100 µM
CCOC(=O)CCC(NC(=O)c1ccc(NCc2ccc3nc(-c4ccccc4)c(Cl)nc3c2)c2ccccc12)C(=O)OCC (centres undefined) | > 100 µM
COC(=O)C(N)CCCC(N)C(=O)NC(C)C(=O)NC(CCC(=O)NCCCNc1ccc([N+](=O)[O-])c2[nH]c3ccccc3c(=O)c12)C(N)=O (centres undefined) | 19.8 µM
CCc1nc(N)nc(N)c1-c1ccc(Cl)c(N=NN(C)C)c1 | > 96.9 µM
CC(C)(C)c1cc(C2NC(=O)NC2=O)cc(C(C)(C)C)c1O (centres undefined) | > 100 µM
CC1(CO)C(=O)OC12CCCCC2 (centres undefined) | > 100 µM
CCOC(=O)c1ccc(NC(NC(=O)CC)(C(F)(F)F)C(F)(F)F)cc1 | > 100 µM
C=C1C(=O)O[C@H]2[C@H]1CC/C(COC(=O)C(=O)c1cn(C)c3ccc(OC)cc13)=C\CC[C@@]1(C)O[C@@H]21 | 21.8 µM

Shift focus to the following entry.
Consider the molecule `Cc1ccsc1/C=N/Nc1ccccn1` and give its measured TGI. > 100 µM
